Target: T1, truncated importin α3 without the IBB domain (residues 64-521) (human, UniProt O00629 64-521)
T1 construct: human importin α3 (KPNA4) without the IBB domain, residues 64-521; also called ΔImpα3; ΔImportin
T1 sequence (looked up): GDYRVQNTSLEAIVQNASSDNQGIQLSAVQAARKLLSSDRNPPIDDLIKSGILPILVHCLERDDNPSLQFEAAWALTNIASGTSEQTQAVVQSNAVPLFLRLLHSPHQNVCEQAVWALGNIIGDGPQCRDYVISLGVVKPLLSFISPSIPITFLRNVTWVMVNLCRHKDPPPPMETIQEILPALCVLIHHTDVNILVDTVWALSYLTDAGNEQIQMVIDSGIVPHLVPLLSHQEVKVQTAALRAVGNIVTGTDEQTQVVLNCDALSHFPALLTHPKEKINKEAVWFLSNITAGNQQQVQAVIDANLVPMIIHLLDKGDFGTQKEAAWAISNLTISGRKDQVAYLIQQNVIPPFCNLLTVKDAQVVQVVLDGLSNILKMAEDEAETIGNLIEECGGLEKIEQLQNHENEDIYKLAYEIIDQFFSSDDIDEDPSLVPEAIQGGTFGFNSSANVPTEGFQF
Assay: ITC; Impα3 or ΔImpα3 (10–20 μM) in the cell, NLS-NUPR1 peptide (150–300 μM) in the syringe; Tris 50 mM, pH 8; 298 K; single ligand binding site (1:1) model, n gives the fraction of binding-competent protein
Conditions: both partners purified
readout name: Kd (µM)
Give a bare numeral; the unit µM is implied.

INSERT INTO results (binder, readout_value) VALUES
  ('Ac-YTNRPSPGGHERKLVTALQNSE-NH2 (tyrosine introduced at the N terminus for absorbance measurements; not a residue of NUPR1; also called K69A peptide; Lys69Ala; source: synthetic peptide (NZYtech, purity 95%)) [NLS-NUPR1 peptide K69A]', 7.6),
  ('Ac-YTNRPSPGGHERKLVEALQNSE-NH2 (tyrosine introduced at the N terminus for absorbance measurements; not a residue of NUPR1; also called T68EK69A peptide; source: synthetic peptide (NZYtech, purity 95%)) [NLS-NUPR1 peptide T68EK69A]', 17);

Kindly review the next binder as well.
## Task Return value of Kd for input Ac-YTNRPSPGGHERKLVEKLQNSE-NH2 (tyrosine introduced at the N terminus for absorbance measurements; not a residue of NUPR1; also called T68E peptide; Thr68Glu; source: synthetic peptide (NZYtech, purity 95%)) [NLS-NUPR1 peptide T68E (phospho-mimetic)] , no commentary.
## Result 12
